Recorded Kd for the following compounds
target: FLT3 D835Y (Homo sapiens, UniProt P36888, D835Y); assay: DiscoverX KINOMEscan competition binding, FLT3 D835Y
MEASUREMENT_KIND: Kd

- CC1(c2cn3c(-c4cccc(N[C@@H]5CCNC5)n4)cnc3cn2)CC1 [Compound 3]: 0.053 nM
- CC1(c2cn3c(-c4cccc(N[C@H]5CNC[C@@H]5F)n4)cnc3cn2)CC1 [Compound 1]: 0.049 nM
- CC(C)(O)c1cn2c(-c3cccc(N[C@@H]4CCCNC4)n3)cnc2cn1 [Compound 30]: 0.47 nM

---

Biological target: FLT3 (Homo sapiens, UniProt P36888)
Sequence (P36888 27-993): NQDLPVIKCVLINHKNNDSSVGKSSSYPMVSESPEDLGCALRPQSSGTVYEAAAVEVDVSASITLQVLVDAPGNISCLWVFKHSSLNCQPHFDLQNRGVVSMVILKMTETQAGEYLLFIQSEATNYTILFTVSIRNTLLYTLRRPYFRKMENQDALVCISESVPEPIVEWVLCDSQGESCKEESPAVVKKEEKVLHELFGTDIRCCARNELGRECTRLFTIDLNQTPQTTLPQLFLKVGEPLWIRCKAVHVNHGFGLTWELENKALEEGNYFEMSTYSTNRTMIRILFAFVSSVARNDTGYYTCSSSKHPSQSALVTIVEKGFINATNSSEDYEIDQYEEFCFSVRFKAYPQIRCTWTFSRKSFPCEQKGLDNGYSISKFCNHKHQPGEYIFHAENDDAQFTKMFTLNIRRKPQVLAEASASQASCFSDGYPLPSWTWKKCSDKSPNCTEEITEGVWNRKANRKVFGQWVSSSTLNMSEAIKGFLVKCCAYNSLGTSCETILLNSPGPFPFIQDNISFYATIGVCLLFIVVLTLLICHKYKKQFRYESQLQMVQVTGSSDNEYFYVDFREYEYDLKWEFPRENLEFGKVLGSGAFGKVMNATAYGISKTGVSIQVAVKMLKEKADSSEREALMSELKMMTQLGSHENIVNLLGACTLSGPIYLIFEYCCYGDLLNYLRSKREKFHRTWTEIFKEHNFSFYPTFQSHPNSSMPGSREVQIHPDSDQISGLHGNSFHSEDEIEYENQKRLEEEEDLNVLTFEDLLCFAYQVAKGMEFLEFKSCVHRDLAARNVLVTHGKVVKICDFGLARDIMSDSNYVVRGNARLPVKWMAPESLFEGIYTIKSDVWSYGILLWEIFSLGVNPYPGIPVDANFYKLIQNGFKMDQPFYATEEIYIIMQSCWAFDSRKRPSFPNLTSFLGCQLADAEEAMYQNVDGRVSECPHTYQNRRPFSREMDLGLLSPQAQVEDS
Experiment: RBC HotSpot Kinase Assay, FLT3
Type: biochemical
Parameters: purchased Reaction Biology (RBC), HotSpot kinase assay
Conditions: isolated kinase, 33P-ATP
MEASUREMENT_KIND: IC50

- c1cc(N[C@@H]2CCCNC2)nc(-c2cnc3cnc(-c4cnn5ccccc45)cn23)c1: < 0.5 nM
- O=C1NCCN1c1cn2c(-c3cccc(N[C@@H]4CCCNC4)n3)cnc2cn1: 1 nM
- F[C@H]1CNC[C@@H]1Nc1cccc(-c2cnc3cnccn23)n1: < 0.5 nM
- c1cc(N[C@H]2CNCC23CC3)nc(-c2cnc3cnccn23)c1: < 0.5 nM
- O=S1(=O)CCCN1c1cn2c(-c3cccc(N[C@@H]4CCCNC4)n3)cnc2cn1: 0.9 nM
- C[C@H]1CNC[C@@H]1Nc1cccc(-c2cnc3cnc(C4(C(F)(F)F)CC4)cn23)n1: < 0.5 nM
- FC(F)(F)C1(c2cn3c(-c4cccc(N[C@H]5CNCC56CC6)n4)cnc3cn2)CC1: < 0.5 nM
- CC(C)(C)c1cn2c(-c3cc(F)cc(N[C@H]4CNC[C@@H]4F)n3)cnc2cn1: < 0.5 nM
